Target: Eukaryotic translation initiation factor 4E (Mus musculus) + Eukaryotic translation initiation factor 4 gamma 1 (Homo sapiens) (UniProt P63073+Q04637)
Sequence (P63073 whole entry, looked up, the tested form may be a part): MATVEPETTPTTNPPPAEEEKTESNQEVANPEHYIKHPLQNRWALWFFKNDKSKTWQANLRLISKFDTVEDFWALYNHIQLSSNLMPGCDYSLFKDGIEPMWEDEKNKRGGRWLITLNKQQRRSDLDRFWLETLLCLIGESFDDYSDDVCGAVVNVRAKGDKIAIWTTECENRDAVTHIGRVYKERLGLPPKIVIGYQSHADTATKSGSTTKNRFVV
Sequence (Q04637 whole entry, looked up, the tested form may be a part): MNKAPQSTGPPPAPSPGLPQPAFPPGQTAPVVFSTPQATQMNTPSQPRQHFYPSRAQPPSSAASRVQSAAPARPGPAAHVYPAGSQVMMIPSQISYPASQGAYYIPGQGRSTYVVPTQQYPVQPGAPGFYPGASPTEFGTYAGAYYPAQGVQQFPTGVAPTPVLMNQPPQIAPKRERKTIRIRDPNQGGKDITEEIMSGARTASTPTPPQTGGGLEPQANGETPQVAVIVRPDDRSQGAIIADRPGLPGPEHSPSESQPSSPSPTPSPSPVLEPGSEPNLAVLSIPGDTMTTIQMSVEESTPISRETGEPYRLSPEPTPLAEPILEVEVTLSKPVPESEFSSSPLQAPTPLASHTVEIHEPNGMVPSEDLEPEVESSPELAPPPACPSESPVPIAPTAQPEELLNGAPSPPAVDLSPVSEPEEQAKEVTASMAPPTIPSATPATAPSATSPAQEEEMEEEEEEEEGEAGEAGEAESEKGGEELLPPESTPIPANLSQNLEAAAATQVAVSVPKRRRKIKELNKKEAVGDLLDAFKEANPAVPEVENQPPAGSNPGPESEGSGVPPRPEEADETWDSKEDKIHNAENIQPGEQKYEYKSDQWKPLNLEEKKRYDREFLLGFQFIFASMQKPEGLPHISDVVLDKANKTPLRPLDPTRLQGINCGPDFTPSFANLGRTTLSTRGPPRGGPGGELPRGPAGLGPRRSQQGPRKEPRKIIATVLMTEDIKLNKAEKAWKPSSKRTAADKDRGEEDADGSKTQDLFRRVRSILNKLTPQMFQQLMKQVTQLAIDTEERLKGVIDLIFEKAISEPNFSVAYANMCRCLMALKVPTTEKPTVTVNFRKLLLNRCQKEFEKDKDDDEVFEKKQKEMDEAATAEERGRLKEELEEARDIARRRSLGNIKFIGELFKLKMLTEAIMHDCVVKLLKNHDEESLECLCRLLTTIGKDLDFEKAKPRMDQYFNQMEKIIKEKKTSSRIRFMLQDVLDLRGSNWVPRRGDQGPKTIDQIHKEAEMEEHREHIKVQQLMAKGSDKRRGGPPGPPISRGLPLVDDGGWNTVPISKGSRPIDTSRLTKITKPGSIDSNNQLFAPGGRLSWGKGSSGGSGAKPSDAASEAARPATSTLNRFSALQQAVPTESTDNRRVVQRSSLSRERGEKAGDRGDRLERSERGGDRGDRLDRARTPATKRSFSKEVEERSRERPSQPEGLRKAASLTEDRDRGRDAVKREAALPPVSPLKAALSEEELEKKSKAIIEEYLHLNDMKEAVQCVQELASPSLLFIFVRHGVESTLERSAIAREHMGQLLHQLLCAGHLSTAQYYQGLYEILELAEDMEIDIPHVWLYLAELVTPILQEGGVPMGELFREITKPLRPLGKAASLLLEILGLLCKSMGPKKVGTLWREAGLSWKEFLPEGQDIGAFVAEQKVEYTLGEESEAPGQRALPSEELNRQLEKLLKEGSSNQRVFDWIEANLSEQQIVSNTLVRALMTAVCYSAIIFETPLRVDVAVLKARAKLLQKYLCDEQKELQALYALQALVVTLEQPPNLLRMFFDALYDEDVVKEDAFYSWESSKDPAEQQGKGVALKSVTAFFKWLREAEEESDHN
Test: eIF4E–eIF4G protein interaction inhibitors, primary screen, biochemical, uHTS, TR-FRET, eIF4GI fragment (AID 782)
Conditions: TR-FRET eIF4E-eIF4GI(517-606) binding, 2 h; at 21.7 µM
The campaign covered roughly 220,000 compounds. About 800 (0.36%) were called active.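 The calls were made as follows: active = inhibition above about 30% (limit read from the data); inactive = the rest.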 What follows is part of a selection rich in actives, with near analogues and random picks from the rest.
Possible outcomes: YES = active, NO = inactive

>  <COMPOUND>
COc1ccnc(Oc2ccccc2)n1

>  <LABEL_VALUE>
NO

$$$$
>  <COMPOUND>
Cc1ccc(NC(=S)NC(NC(=O)Cc2cccc3ccccc23)C(Cl)(Cl)Cl)cc1 (configuration not stated)

>  <LABEL_VALUE>
NO

$$$$
>  <COMPOUND>
CCN(Cc1ccccc1)C(=O)CN1C(=S)NC(C)(C)CC1C (configuration not stated)

>  <LABEL_VALUE>
NO

$$$$
>  <COMPOUND>
O=C(NNC(=S)NC(=O)c1cn(-c2ccccc2)nc1-c1ccccc1)c1ccncc1

>  <LABEL_VALUE>
NO

$$$$
>  <COMPOUND>
O=C1c2ccccc2C(O)N1Cc1ccccc1 (configuration not stated)

>  <LABEL_VALUE>
NO

$$$$
>  <COMPOUND>
N/C(=N\S(=O)(=O)c1ccc(Cl)cc1)N1CCOCC1

>  <LABEL_VALUE>
NO

$$$$
>  <COMPOUND>
O=S(=O)(NCCc1ccc(F)cc1)c1cccc2cccnc12

>  <LABEL_VALUE>
YES

$$$$
>  <COMPOUND>
Cc1cc(C)n(-c2nnc(N3CCN(c4ccccc4)CC3)nn2)n1

>  <LABEL_VALUE>
NO

$$$$
>  <COMPOUND>
Oc1ccc(-c2nnc(Nc3ccccc3)c3ccccc23)cc1

>  <LABEL_VALUE>
NO

$$$$
>  <COMPOUND>
COC(=O)Nc1ncc(CN2CCCCC2)s1

>  <LABEL_VALUE>
NO

$$$$
>  <COMPOUND>
O=C(N/N=C/c1ccc([N+](=O)[O-])o1)c1cccc(S(=O)(=O)N2CCOCC2)c1

>  <LABEL_VALUE>
NO

$$$$
>  <COMPOUND>
CCCCn1c(O)c(N=NC(=O)Cn2c(C(F)(F)F)nc3ccccc32)c2ccccc21

>  <LABEL_VALUE>
NO

$$$$
>  <COMPOUND>
O=C(/C=C\c1ccc2c(c1)OCO2)NC1(C(=O)Nc2ccc3c(c2)OCCO3)CCCCC1

>  <LABEL_VALUE>
NO

$$$$
>  <COMPOUND>
O=C(c1ccc(F)cc1)N1CCCC(c2nc(-c3cccs3)no2)C1 (configuration not stated)

>  <LABEL_VALUE>
NO

$$$$
>  <COMPOUND>
O=C1c2ccccc2C(O)N1Cc1ccccc1Cl (configuration not stated)

>  <LABEL_VALUE>
YES

$$$$
>  <COMPOUND>
O=C(NNC1=NCCC1)c1cccc(S(=O)(=O)N2CCCCC2)c1

>  <LABEL_VALUE>
NO

$$$$
>  <COMPOUND>
CCOC(=O)N1CCC(=NNC(N)=O)CC1

>  <LABEL_VALUE>
NO

$$$$
>  <COMPOUND>
S=C(NCCc1ccccc1)N1CCn2cccc2C1c1ccncc1 (configuration not stated)

>  <LABEL_VALUE>
NO

$$$$
>  <COMPOUND>
Cc1ccc(NC(=O)Nc2cc(-c3ccccc3)nn2C)cc1Cl

>  <LABEL_VALUE>
NO

$$$$
>  <COMPOUND>
COc1ccc(CCNS(=O)(=O)c2cccc3cccnc23)cc1OC

>  <LABEL_VALUE>
NO

$$$$
>  <COMPOUND>
CCOC(=O)CNC(=O)/C(=C\c1ccc(F)cc1)NC(=O)c1ccccc1

>  <LABEL_VALUE>
NO

$$$$
>  <COMPOUND>
COc1ccc(C2C(C(=O)N3CCN(c4ccc(OC)cc4)CC3)c3ccccc3C(=O)N2C)cc1 (configuration not stated)

>  <LABEL_VALUE>
NO

$$$$
>  <COMPOUND>
COc1ccc([C@H]2[C@H](C(C)=O)N3N=Cc4ccccc4C3C23C(=O)OC(C)(C)OC3=O)cc1 (some centres not stated)

>  <LABEL_VALUE>
YES

$$$$
>  <COMPOUND>
CCOC(=O)c1c(NC(=O)CSc2nnc(CNc3ccc(C)cc3C)o2)sc(C)c1C

>  <LABEL_VALUE>
NO

$$$$
>  <COMPOUND>
O=C(Nc1ccc(Br)cc1)C1CCC(=O)N1Cc1ccccc1Cl (configuration not stated)

>  <LABEL_VALUE>
NO

$$$$
>  <COMPOUND>
CCCc1c(C(=O)Nc2ccc(F)cc2)cnn1-c1ccccc1

>  <LABEL_VALUE>
NO

$$$$
>  <COMPOUND>
O=C(Cn1cnc2cc([N+](=O)[O-])ccc2c1=O)NC(=O)NCc1ccccc1

>  <LABEL_VALUE>
YES

$$$$

Every entry's value here was drawn from PubChem BioAssay AID782.
